pIC50: recorded values
experimental.system: Dopamine (DA) uptake into rat brain synaptosome (striatum) (Rattus norvegicus, UniProt P23977)
Construct: used as crude synaptosome fraction
Sequence (P23977 whole entry): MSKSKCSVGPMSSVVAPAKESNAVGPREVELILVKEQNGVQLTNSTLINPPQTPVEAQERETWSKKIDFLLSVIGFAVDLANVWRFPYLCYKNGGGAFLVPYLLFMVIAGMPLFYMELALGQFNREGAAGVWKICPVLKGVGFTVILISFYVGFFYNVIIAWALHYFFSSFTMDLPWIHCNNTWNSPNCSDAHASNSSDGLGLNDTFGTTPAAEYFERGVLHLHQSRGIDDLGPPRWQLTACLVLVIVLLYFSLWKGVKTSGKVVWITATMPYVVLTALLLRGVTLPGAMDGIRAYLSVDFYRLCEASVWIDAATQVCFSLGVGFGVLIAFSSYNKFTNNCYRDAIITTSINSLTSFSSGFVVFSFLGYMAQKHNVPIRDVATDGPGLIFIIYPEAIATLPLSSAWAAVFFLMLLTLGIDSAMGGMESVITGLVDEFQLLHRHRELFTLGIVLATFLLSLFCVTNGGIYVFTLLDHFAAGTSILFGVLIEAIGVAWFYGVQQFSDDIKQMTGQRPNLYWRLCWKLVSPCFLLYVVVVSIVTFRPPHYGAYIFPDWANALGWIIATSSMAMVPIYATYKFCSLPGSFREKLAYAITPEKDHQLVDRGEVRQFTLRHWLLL
protocol.notes: Inhibitory activity on dopamine (DA) uptake into rat brain synaptosome
applied.conditions: tritium labeled DA 2 nM uptake, 10 min at 37° C., read-out: 50% inhibitory concentration
pIC50 field: float, defined as -log10 of concentration (mol/L).

For orientation, consider the following solved cases.
Fc1ccc(N(c2ccc3cnsc3c2)[C@H]2CCNC2)cc1Cl | 8.17
N#Cc1ccc(N(c2ccc(F)c(Cl)c2)[C@H]2CCNC2)cc1 | 8.05

Which pIC50 value is on record for "N#Cc1ccc(N(c2ccc(F)c(Cl)c2)[C@H]2CCNC2)cn1" ?
8.19

Which pIC50 value is on record for "Clc1ccc(N(c2cnccn2)[C@H]2CCNC2)cc1Cl" ?
7.33

Which pIC50 value is on record for "c1cncc(N(c2ccc3ccsc3c2)[C@H]2CCNC2)c1" ?
7.51

###

experimental.system: Norepinephrine (NE) uptake into rat brain synaptosome (hippocampus) (Rattus norvegicus)
Construct: used as crude synaptosome fraction
Sequence (Q63380 1-617): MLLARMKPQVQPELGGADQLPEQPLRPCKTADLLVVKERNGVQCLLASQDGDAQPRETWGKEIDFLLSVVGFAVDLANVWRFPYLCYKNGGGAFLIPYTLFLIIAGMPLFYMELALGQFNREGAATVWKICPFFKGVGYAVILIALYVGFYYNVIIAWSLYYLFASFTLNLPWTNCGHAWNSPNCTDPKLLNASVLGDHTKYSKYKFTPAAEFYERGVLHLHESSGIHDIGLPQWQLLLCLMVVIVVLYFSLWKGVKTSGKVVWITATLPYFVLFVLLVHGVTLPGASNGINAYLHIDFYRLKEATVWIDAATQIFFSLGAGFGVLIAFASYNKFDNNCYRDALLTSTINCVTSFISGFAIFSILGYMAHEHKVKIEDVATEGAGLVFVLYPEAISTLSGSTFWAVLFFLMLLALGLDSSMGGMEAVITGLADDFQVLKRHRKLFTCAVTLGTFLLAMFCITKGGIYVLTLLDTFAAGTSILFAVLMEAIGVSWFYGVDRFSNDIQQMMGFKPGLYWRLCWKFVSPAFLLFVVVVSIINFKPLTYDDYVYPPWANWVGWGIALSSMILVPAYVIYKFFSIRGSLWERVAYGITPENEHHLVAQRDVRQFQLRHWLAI
protocol.notes: Inhibitory activity on norepinephrine (NE) uptake into rat brain synaptosome
applied.conditions: tritium-labeled NE 12 nM uptake, 10 min at 37° C., read-out: 50% inhibitory concentration
result.type: pIC50
pIC50 field: float, defined as -log10 of concentration (mol/L).

For orientation, consider the following solved cases.
Clc1ccc(N(c2cnccn2)[C@H]2CCNC2)cc1Cl | 9.10
Cc1ccc(N(c2ccccc2)[C@H]2CCNC2)cc1 | 8.66
Fc1ccc(N(c2ccccn2)[C@H]2CCNC2)cc1Cl | 9.70

Which pIC50 value is on record for Clc1ccc(N(c2cccnc2)[C@H]2CCNC2)cc1Cl [Example 256] ?
10.00

Which pIC50 value is on record for "Fc1ccc(N(c2nccs2)[C@H]2CCNC2)cc1Cl" ?
9.70

Which pIC50 value is on record for "Cn1ncc2ccc(N(c3ccc(F)c(Cl)c3)[C@H]3CCNC3)cc21" ?
9.10

Which pIC50 value is on record for CS(=O)(=O)O.CS(=O)(=O)O.Fc1ccc(N(c2cccnc2)[C@H]2CCNC2)cc1Cl [Example 7, dimethanesulfonate] ?
9.40

Which pIC50 value is on record for "c1cncc(N(c2ccc3ccsc3c2)[C@H]2CCNC2)c1" ?
10.00

Which pIC50 value is on record for "[O-][n+]1cccc(N(c2ccc(F)c(Cl)c2)[C@H]2CCNC2)c1" ?
9.05

###

Where a name gives a salt, the structure may show the parent alone.
melting point: recorded values

For orientation, consider the following solved cases.
Fc1ccc(N(c2ccc3ccsc3c2)[C@H]2CCNC2)cc1 (as salt: fumarate) | 131.6 to 133.3 °C
Fc1ccc(N(c2ccc(Cl)nc2)[C@H]2CCNC2)cc1Cl (as salt: fumarate) | 136 to 137 °C
c1ccc(N(c2ccc3sccc3c2)[C@H]2CCNC2)cc1 (as salt: hydrochloride) | 158 to 160 °C
Fc1ccc(N(c2ccccc2)[C@H]2CCNC2)cc1 (as salt: fumarate) | 143 to 145 °C
Fc1ccc(N(c2ccc(-c3cnco3)cc2)[C@H]2CCNC2)cc1Cl | 115 to 117 °C

Which melting point value is on record for Fc1ccc(N(c2ccc(Cl)c(Cl)c2)[C@H]2CCNC2)nc1 (as salt: hydrochloride) ?
96 to 98 °C

Which melting point value is on record for Fc1ccc(N(c2ccc(N3CCNCC3)cn2)[C@H]2CCNC2)cc1Cl (as salt: hydrochloride) ?
212 to 215 °C

Which melting point value is on record for Cc1ccc(N(c2ccccc2)[C@H]2CCNC2)cc1 (as salt: fumarate) ?
141.7 to 143.8 °C

###

pIC50: recorded values
experimental.system: Dopamine (DA) uptake into rat brain synaptosome (striatum) (Rattus norvegicus)
Construct: used as crude synaptosome fraction
protocol.notes: Inhibitory activity on dopamine (DA) uptake into rat brain synaptosome
applied.conditions: tritium labeled DA 2 nM uptake, 10 min at 37° C., read-out: 50% inhibitory concentration
pIC50 field: float, defined as -log10 of concentration (mol/L).

Which pIC50 value is on record for CS(=O)(=O)O.CS(=O)(=O)O.Fc1ccc(N(c2cccnc2)[C@H]2CCNC2)cc1Cl [Example 7, dimethanesulfonate] ?
7.35

###

IC50: recorded values
experimental.system: Serotonin (5-HT) uptake into rat brain synaptosome (frontal cortex) (Rattus norvegicus)
Construct: used as crude synaptosome fractions
protocol.notes: Inhibitory activity on serotonin (5-HT) uptake into rat brain synaptosome
applied.conditions: tritium-labeled 5-HT 8 nM uptake, 10 min at 37° C., read-out: 50% inhibittory concentration

For orientation, consider the following solved cases.
Clc1ccc(N(c2cnccn2)[C@H]2CCNC2)cc1Cl | 1 nM
CC(C)(O)CN(c1ccc(F)c(Cl)c1)[C@H]1CCNC1 | 0.9 nM
O=C1CCc2ccc(N(c3ccc(F)cc3)[C@H]3CCNC3)cc2N1 | 0.7 nM
Fc1ccc(N(c2ccc3ncccc3c2)[C@H]2CCNC2)cc1Cl | 0.8 nM
Fc1ccc(N(CCCCOc2ccccn2)[C@H]2CCNC2)cc1Cl [Example 5, difumarate] | 1.6 nM

Which IC50 value is on record for "Fc1ccc(N(c2ccsc2)[C@H]2CCNC2)cc1Cl" ?
2.2 nM

###

IC50: recorded values
experimental.system: Dopamine (DA) uptake into rat brain synaptosome (striatum) (Rattus norvegicus, UniProt P23977)
Construct: used as crude synaptosome fraction
protocol.notes: Inhibitory activity on dopamine (DA) uptake into rat brain synaptosome
applied.conditions: tritium labeled DA 2 nM uptake, 10 min at 37° C., read-out: 50% inhibitory concentration
Please respond with the number in nM and leave the unit unwritten.

Which IC50 value is on record for "Cc1cc(N(c2cncc(F)c2)[C@H]2CCNC2)ccc1F" ?
38

Which IC50 value is on record for "CC(C)(O)CN(c1ccc(F)c(Cl)c1)[C@H]1CCNC1" ?
25.4

Which IC50 value is on record for "c1cc2ccc(N(c3ccc4ccsc4c3)[C@H]3CCNC3)cc2s1" ?
9.6

Which IC50 value is on record for "c1cncc(N(c2ccc3sccc3c2)[C@H]2CCNC2)c1" ?
24

###

experimental.system: Serotonin (5-HT) uptake into rat brain synaptosome (frontal cortex) (Rattus norvegicus, UniProt P31652)
Construct: used as crude synaptosome fractions
Sequence (P31652 whole entry): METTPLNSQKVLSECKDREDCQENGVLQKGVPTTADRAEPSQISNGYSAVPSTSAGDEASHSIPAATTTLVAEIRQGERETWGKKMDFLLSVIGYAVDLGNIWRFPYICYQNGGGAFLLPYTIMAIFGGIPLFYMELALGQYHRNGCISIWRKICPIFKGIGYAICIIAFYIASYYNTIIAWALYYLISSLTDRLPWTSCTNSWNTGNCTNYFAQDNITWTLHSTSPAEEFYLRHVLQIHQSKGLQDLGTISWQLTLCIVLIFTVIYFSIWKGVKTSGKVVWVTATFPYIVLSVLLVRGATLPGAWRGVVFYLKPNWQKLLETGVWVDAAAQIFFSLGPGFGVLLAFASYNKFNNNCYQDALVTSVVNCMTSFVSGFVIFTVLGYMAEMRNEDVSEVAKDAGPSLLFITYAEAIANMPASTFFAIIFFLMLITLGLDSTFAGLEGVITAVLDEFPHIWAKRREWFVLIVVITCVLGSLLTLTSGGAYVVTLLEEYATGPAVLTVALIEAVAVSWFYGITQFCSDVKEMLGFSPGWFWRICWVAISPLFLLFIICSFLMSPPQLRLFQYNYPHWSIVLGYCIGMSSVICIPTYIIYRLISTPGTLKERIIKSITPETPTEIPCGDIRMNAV
protocol.notes: Inhibitory activity on serotonin (5-HT) uptake into rat brain synaptosome
applied.conditions: tritium-labeled 5-HT 8 nM uptake, 10 min at 37° C., read-out: 50% inhibittory concentration
Procedure: Pharmacological Test 1 Evaluation of Inhibitory Activity of Test Compound on Serotonin (5-HT) Uptake into Rat Brain Synaptosome Male Wistar rats were decapitated and the brains were removed and the frontal cortices were dissected. […] The total uptake activity with only solvent was determined as 100%, and the nonspecific uptake activity with unlabeled 5-HT (final concentration of 10 μM) was determined as 0%. […]
Threshold 800 pM. IC50 below it: yes. IC50 at it or above: no.

[O-][n+]1cccc(N(c2ccc(F)c(Cl)c2)[C@H]2CCNC2)c1 [Example 896] | no
Fc1ccc(N(c2ccc3ccsc3n2)[C@H]2CCNC2)cc1 [Example 899] | yes
Cn1c(=O)ccc2cc(N(c3ccc(F)c(Cl)c3)[C@H]3CCNC3)ccc21 [Example 912] | no
c1ccc(N(c2ccc3sccc3n2)[C@H]2CCNC2)cc1 [Example 934] | no
Fc1ccc(N(c2nccs2)[C@H]2CCNC2)cc1Cl [Example 131] | yes
Fc1ccc(N(c2ccc3ncsc3c2)[C@H]2CCNC2)cc1Cl [Example 989] | yes

Next item in the queue.
Does Fc1ccc(N(c2ccc3cnsc3c2)[C@H]2CCNC2)cc1 [Example 901] have IC50 strictly under 800 pM?
yes

###

experimental.system: Serotonin (5-HT) uptake into rat brain synaptosome (frontal cortex) (Rattus norvegicus, UniProt P31652)
Construct: used as crude synaptosome fractions
protocol.notes: Inhibitory activity on serotonin (5-HT) uptake into rat brain synaptosome
applied.conditions: tritium-labeled 5-HT 8 nM uptake, 10 min at 37° C., read-out: 50% inhibittory concentration
result.type: pIC50
pIC50 field: float, defined as -log10 of concentration (mol/L).

For orientation, consider the following solved cases.
Cc1cc(N(c2cnc3ccccc3c2)[C@H]2CCNC2)ccc1F | 9.10
Fc1ccc(N(c2ccc3ccsc3c2)[C@H]2CCNC2)cc1 | 9.10

Now examine the next entry.
Which pIC50 value is on record for "N#Cc1ccc(N(c2ccc(F)c(Cl)c2)[C@H]2CCNC2)cn1" ?
9.10
